Assay: activity coefficient (dimensionless); of the first substance listed, at infinite dilution; xn = mol fraction of the nth substance listed
Conditions: 348.15 K; 101.33 kPa; Liquid; Chromatography; x1 = 0
measured-metric: activity coefficient
Number only, please.

The examples below pair each entry with its known result.
Specify reported activity coefficient for the compound shown: CC(C)OC(C)C [diisopropyl ether] + N#C[N-]C#N.OCCC[n+]1ccccc1
97.5

Specify reported activity coefficient for the compound shown: CCC(C)(C)OC [2-methoxy-2-methylbutane] + N#C[N-]C#N.OCCC[n+]1ccccc1
42.3

Specify reported activity coefficient for the compound shown: COC(C)(C)C [2-methoxy-2-methylpropane] + N#C[N-]C#N.OCCC[n+]1ccccc1
26.2

Below: the item to evaluate.
Specify reported activity coefficient for the compound shown: CCO [ethanol] + N#C[N-]C#N.OCCC[n+]1ccccc1
1.31

----------
Assay: activity coefficient (dimensionless); of the first substance listed, at infinite dilution; xn = mol fraction of the nth substance listed
Conditions: 318.15 K; 101.33 kPa; Liquid; Chromatography; x1 = 0
Criterion: activity coefficient strictly less than 6. Met: true (1). Not met: false (0).

Below are worked cases with known answers.
For CC(C)=O [acetone] + N#C[N-]C#N.OCCC[n+]1ccccc1 , is the recorded activity coefficient below the cut-off of 6?
true (1)

For CC(C)c1ccccc1 [isopropylbenzene] + N#C[N-]C#N.OCCC[n+]1ccccc1 , is the recorded activity coefficient below the cut-off of 6?
false (0)

For CCCCCCCCC [nonane] + N#C[N-]C#N.OCCC[n+]1ccccc1 , is the recorded activity coefficient below the cut-off of 6?
false (0)

For C=CCCC [1-pentene] + N#C[N-]C#N.OCCC[n+]1ccccc1 , is the recorded activity coefficient below the cut-off of 6?
false (0)

For CCCCCO [pentan-1-ol] + N#C[N-]C#N.OCCC[n+]1ccccc1 , is the recorded activity coefficient below the cut-off of 6?
true (1)

For Cc1ccc(C)cc1 [1,4-dimethylbenzene] + N#C[N-]C#N.OCCC[n+]1ccccc1 , is the recorded activity coefficient below the cut-off of 6?
false (0)

For CCCC(C)=O [pentan-2-one] + N#C[N-]C#N.OCCC[n+]1ccccc1 , is the recorded activity coefficient below the cut-off of 6?
true (1)

For C=C(C)c1ccccc1 [(1-methylethenyl)benzene] + N#C[N-]C#N.OCCC[n+]1ccccc1 , is the recorded activity coefficient below the cut-off of 6?
false (0)

Others:
For CCC[N+](=O)[O-] [1-nitropropane] + N#C[N-]C#N.OCCC[n+]1ccccc1 , is the recorded activity coefficient below the cut-off of 6?
true (1)

For CCc1ccccc1 [ethylbenzene] + N#C[N-]C#N.OCCC[n+]1ccccc1 , is the recorded activity coefficient below the cut-off of 6?
false (0)

For CCCCCCC [heptane] + N#C[N-]C#N.OCCC[n+]1ccccc1 , is the recorded activity coefficient below the cut-off of 6?
false (0)

For C1CCCC1 [cyclopentane] + N#C[N-]C#N.OCCC[n+]1ccccc1 , is the recorded activity coefficient below the cut-off of 6?
false (0)

For CC(C)CO [2-methyl-1-propanol] + N#C[N-]C#N.OCCC[n+]1ccccc1 , is the recorded activity coefficient below the cut-off of 6?
true (1)

For CCC(C)O (stereo not given) [butan-2-ol] + N#C[N-]C#N.OCCC[n+]1ccccc1 , is the recorded activity coefficient below the cut-off of 6?
true (1)
